biological target: purified human prolyl 4-hydroxylase (Homo sapiens, UniProt P13674); construct: made in house; host or cells: Spodoptera frugiperda insect cells (baculovirus, co-expression of α- and β-subunits); assay: Assay of purified human prolyl 4-hydroxylase (14CO2 release from 2-oxoglutarate, cell-free); format: biochemical; settings: purified human enzyme; inhibitory dose that gives 50% reduction of the enzyme-mediated reaction; unit assumed
Sequence (P13674 18-534): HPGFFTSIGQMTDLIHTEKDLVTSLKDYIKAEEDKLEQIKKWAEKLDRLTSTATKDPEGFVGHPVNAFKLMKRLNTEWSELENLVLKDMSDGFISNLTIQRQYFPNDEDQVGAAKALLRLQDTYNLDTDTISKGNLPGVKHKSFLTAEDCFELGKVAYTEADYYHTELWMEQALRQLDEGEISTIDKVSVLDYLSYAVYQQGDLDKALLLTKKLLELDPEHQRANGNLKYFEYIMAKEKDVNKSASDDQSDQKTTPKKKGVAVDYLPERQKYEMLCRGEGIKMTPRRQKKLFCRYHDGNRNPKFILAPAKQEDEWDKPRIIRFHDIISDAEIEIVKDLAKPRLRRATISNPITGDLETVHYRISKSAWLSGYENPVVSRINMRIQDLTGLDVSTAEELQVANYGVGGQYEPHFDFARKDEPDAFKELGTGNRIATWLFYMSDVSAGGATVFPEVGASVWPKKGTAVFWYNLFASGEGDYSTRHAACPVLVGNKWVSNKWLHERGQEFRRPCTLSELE
Sequence (P07237 18-508 partner): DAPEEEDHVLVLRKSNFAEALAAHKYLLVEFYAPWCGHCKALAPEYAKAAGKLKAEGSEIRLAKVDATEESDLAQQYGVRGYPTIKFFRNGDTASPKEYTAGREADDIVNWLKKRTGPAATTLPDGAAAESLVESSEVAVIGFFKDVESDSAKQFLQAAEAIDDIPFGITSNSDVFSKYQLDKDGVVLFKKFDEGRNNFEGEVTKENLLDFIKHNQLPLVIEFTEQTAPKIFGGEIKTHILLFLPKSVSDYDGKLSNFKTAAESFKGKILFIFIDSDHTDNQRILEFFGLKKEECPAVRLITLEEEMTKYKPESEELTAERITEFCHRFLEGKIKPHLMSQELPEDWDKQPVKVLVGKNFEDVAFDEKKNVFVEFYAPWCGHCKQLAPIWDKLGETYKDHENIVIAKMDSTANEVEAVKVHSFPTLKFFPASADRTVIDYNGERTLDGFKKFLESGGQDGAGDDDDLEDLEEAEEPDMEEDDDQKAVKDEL
MEASUREMENT_NAME: Prolyl 4-hydroxylase ID50 (purified) (µM)

# example entries with known answers
INSERT INTO assay_data (molecule, measurement_name, numeric_value) VALUES
  ('CCc1c(O)c(=O)ccn1CC', 'Prolyl 4-hydroxylase ID50 (purified)', 145),
  ('N[C@@H](Cn1ccc(=O)c(O)c1)C(=O)O', 'Prolyl 4-hydroxylase ID50 (purified)', 120),
  ('CCCn1ccc(=O)c(O)c1C', 'Prolyl 4-hydroxylase ID50 (purified)', 155),
  ('C=CCn1ccc(=O)c(O)c1C', 'Prolyl 4-hydroxylase ID50 (purified)', 150),
  ('CCn1ccc(=O)c(O)c1C', 'Prolyl 4-hydroxylase ID50 (purified)', 130),
  ('CCOC(=O)[C@@H](N)Cn1ccc(=O)c(O)c1', 'Prolyl 4-hydroxylase ID50 (purified)', 145);

[1] Cc1c(O)c(=O)ccn1C [HK-1, 1,2-dimethyl-3-hydroxypyrid-4-one]
[2] CCOCn1ccc(=O)c(O)c1C
Returns: the argument ( 1 or 2 ) having the larger Prolyl 4-hydroxylase ID50 (purified). Respond with the label that goes with your answer.
2

====

Molecular target: cellular human deoxyhypusyl hydroxylase (Homo sapiens, UniProt Q9BU89)
Construct: endogenous in cells; host or cells: cultured human cells (smooth muscle cells, B-lymphocytes)
Sequence (Q9BU89 1-302): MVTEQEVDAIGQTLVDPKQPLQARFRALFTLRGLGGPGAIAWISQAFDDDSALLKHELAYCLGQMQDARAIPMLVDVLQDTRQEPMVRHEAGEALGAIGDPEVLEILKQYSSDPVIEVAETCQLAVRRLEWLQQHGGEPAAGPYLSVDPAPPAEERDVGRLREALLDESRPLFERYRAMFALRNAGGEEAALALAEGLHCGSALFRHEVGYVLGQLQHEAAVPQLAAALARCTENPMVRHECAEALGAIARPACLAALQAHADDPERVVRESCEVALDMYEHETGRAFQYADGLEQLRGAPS
Assay: Cellular human deoxyhypusyl hydroxylase (DOHH assay, 3H-spermidine labeling)
Assay type: cell-based
Conditions: cellular human enzyme; inhibitory dose that gives 50% reduction of the enzyme-mediated reaction; unit assumed
MEASUREMENT_NAME: Deoxyhypusyl hydroxylase ID50 (cellular) (µM)

[I] CCn1ccc(=O)c(O)c1C
[II] Cc1c(O)c(=O)ccn1C [HK-1, 1,2-dimethyl-3-hydroxypyrid-4-one]
Returns: the argument ( I or II ) having the larger Deoxyhypusyl hydroxylase ID50 (cellular). Respond with the label that goes with your answer.
II

====

target: cellular human deoxyhypusyl hydroxylase (Homo sapiens, UniProt Q9BU89); construct: endogenous in cells; host or cells: cultured human cells (smooth muscle cells, B-lymphocytes); experiment: Cellular human deoxyhypusyl hydroxylase (DOHH assay, 3H-spermidine labeling); type: cell-based; details: cellular human enzyme; inhibitory dose that gives 50% reduction of the enzyme-mediated reaction; unit assumed
MEASUREMENT_NAME: Deoxyhypusyl hydroxylase ID50 (cellular) (µM)

INSERT INTO measurements (compound_smiles, numeric_value) VALUES
  ('C=CCn1ccc(=O)c(O)c1C', 50),
  ('CCOCn1ccc(=O)c(O)c1C', 60),
  ('CCCn1ccc(=O)c(O)c1C', 50),
  ('CCc1c(O)c(=O)ccn1CC', 50),
  ('N[C@@H](Cn1ccc(=O)c(O)c1)C(=O)O', 65);
